# Lookup of reported solubility keyed by entry
- Experimental Parameters: 20 °C
Field: numeric (µM). Do not append units.

| Compound | solubility, µM |
| --- | --- |
| ClC(Br)CBr (stereo not drawn) | 2790 |
| BrCC(Br)Br | 1870 |

Now, please, on to the next compound.
Bench note: what solubility did ClC(Br)C(Cl)Br (stereo not drawn) show?
2730

###

- Experimental Parameters: 25 °C
Reported solubility values are given for each entry in this list.
State just the number; it will be interpreted in mM.

| Compound | Readout Value |
| --- | --- |
| ClCCBr | 48.1 |
| CCBr | 82 |
| C=C(Cl)Cl | 23.2 |
| ClC(Cl)C(Cl)(Cl)Cl | 2.37 |
| FC(F)(Br)C(F)(F)Br | 0.0115 |

Looking for the measured solubility of "CC(Cl)(Cl)Cl" , can you help?
11.2

Entry "ClCC(Cl)(Cl)Cl" has what solubility?
6.38

Bench note: what solubility did "CCI" show?
25.1

// solubility lookup, key: "ClC(Cl)=C(Cl)Cl"
1.21

Param item = FC(F)(F)C(Cl)Br (stereo unspecified) ; retrieve measured solubility.
19.8

Please look up its solubility: "FC(F)(F)C(Cl)Cl"
13.7

What solubility value was documented for this compound, "CCCl" ?
88

I am curious: what solubility value has been reported for "BrC(Br)C(Br)Br" ?
1.91

Param item = "FCCCl" ; retrieve measured solubility.
296

May I ask what solubility has been recorded for "ClCC(Cl)Cl" ?
33.1

GET /values?readout=solubility&item= "CC(F)(Cl)Cl"
3.59
